study target: OsWOX13 (Oryza sativa, UniProt Q5QMM3 1-267)
Sequence: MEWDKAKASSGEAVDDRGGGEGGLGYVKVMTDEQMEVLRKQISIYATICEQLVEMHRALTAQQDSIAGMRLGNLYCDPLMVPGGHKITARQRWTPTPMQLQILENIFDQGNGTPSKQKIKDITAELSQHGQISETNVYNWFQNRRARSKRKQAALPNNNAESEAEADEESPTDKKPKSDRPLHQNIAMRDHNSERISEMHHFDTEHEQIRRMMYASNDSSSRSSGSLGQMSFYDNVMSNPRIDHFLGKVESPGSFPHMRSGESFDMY
assay protocol: protein-binding microarray (RPBM); PBS, 2% BSA, 51.3 ng/ul salmon testes DNA, 50 uM zinc acetate, 200 nM TF, 25 C, 1 h; high values mean tight binding
assay setup: protein: recombinant; tags: N-terminal polyhistidine and DsRed monomer fusion (pET32a); label: CyDye5-dUTP incorporated in the synthesized complementary strand; 3' TTTTT single-stranded linker to array surface; dsDNA, one strand shown
Over roughly 35,000 sequences, “fluorescence intensity (a.u.)” has its median near 10,000; the highest 2% begin near 52,000. The list comes from a sample in which the highest values are over-represented; it also holds close analogues and randomly drawn sequences.
measurement label: binding signal

Item TGTAATTATAATTTATTTTATTGTGATTTGATTTATCATCCGGAGTCACCTAGTGCAG with OsWOX13 (Oryza sativa, UniProt Q5QMM3 1-267) - binding signal?
59800 fluorescence intensity (a.u.)

Item GGTTCCACTATCAATCTTAGACAGTATAAACAGGTCAACACGGAGTCACCTAGTGCAG with OsWOX13 (Oryza sativa, UniProt Q5QMM3 1-267) - binding signal?
5380 fluorescence intensity (a.u.)

Item GCTTAATTAATTGATTCAGAAAATAAAATAGTGAAATAACCGGAGTCACCTAGTGCAG with OsWOX13 (Oryza sativa, UniProt Q5QMM3 1-267) - binding signal?
33400 fluorescence intensity (a.u.)

Item TTGATATTCTTTATATGATTATATAGGATTGGTCTCCCTCCGGAGTCACCTAGTGCAG with OsWOX13 (Oryza sativa, UniProt Q5QMM3 1-267) - binding signal?
3530 fluorescence intensity (a.u.)

Item GTAATTATAATTTATTTTGTTATGAGTTGTTTTATCACTCCGGAGTCACCTAGTGCAG with OsWOX13 (Oryza sativa, UniProt Q5QMM3 1-267) - binding signal?
6220 fluorescence intensity (a.u.)

---

What binding signal was measured for each of the following?
study target: OsWOX13 (Oryza sativa, UniProt Q5QMM3 1-267)
Sequence: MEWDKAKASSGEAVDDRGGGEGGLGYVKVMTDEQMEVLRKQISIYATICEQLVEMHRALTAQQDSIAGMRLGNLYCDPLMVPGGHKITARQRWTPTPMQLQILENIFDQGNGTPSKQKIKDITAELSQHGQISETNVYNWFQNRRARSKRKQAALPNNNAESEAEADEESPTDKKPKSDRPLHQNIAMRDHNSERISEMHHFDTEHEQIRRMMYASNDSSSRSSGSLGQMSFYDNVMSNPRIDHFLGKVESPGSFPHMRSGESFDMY
assay protocol: protein-binding microarray (RPBM); PBS, 2% BSA, 51.3 ng/ul salmon testes DNA, 50 uM zinc acetate, 200 nM TF, 25 C, 1 h; high values mean tight binding
assay setup: protein: recombinant; tags: N-terminal polyhistidine and DsRed monomer fusion (pET32a); label: CyDye5-dUTP incorporated in the synthesized complementary strand; 3' TTTTT single-stranded linker to array surface; dsDNA, one strand shown
In all, about 35,000 sequences were measured (“fluorescence intensity (a.u.)”: median about 10,000, highest 2% from about 52,000 on). The full list was thinned out, with the highest values kept by preference.

# input sequence: GGTTCAACGGTACCCTTGATTGCTATAGAGAGTGATATATCGGAGTCACCTAGTGCAG ; wanted: its binding signal
4670 fluorescence intensity (a.u.)

# input sequence: AAGATAGATAGATAGATAGATAGATAGATCGATCGATCATCGGAGTCACCTAGTGCAG ; wanted: its binding signal
14900 fluorescence intensity (a.u.)

# input sequence: TATGAATGACATATAAACAGATAATCGTGTTCACCGAATGCGGAGTCACCTAGTGCAG ; wanted: its binding signal
20900 fluorescence intensity (a.u.)

# input sequence: ACTAATCATCACATCGCTGTCTCAGATTCTCAGTGACAGACGGAGTCACCTAGTGCAG ; wanted: its binding signal
4120 fluorescence intensity (a.u.)

# input sequence: CGATCAATCTCTCTTTATTTATTTGCAGATCGATCAACCTCGGAGTCACCTAGTGCAG ; wanted: its binding signal
5760 fluorescence intensity (a.u.)

# input sequence: AGTGATCATTGATCTAAACTACTTGCAGGTGACGCACACGCGGAGTCACCTAGTGCAG ; wanted: its binding signal
6200 fluorescence intensity (a.u.)

# input sequence: GATCAAAAGAAATTTGCCAAATTTACTGCTTTGTGATGGGCGGAGTCACCTAGTGCAG ; wanted: its binding signal
3610 fluorescence intensity (a.u.)

# input sequence: TGGGATTGGGAAATAAATGAAGGGTTAGGATTAAATGGAACGGAGTCACCTAGTGCAG ; wanted: its binding signal
24100 fluorescence intensity (a.u.)

# input sequence: CCAACTAATCATGCTTAGTTAGCAATTAAGCCATAAACAACGGAGTCACCTAGTGCAG ; wanted: its binding signal
9180 fluorescence intensity (a.u.)

# input sequence: TTGACTTGTACATAGTAATGATTGGCAGGTAATGACGTACCGGAGTCACCTAGTGCAG ; wanted: its binding signal
24100 fluorescence intensity (a.u.)

# input sequence: ATAGATAGATAGATAGATAGATAGATTGATCGATCGATCGCGGAGTCACCTAGTGCAG ; wanted: its binding signal
55400 fluorescence intensity (a.u.)

# input sequence: GTACCTACCAGTAATTAATCAGCAGGCTCACTGTAATCAACGGAGTCACCTAGTGCAG ; wanted: its binding signal
3470 fluorescence intensity (a.u.)

# input sequence: TAGTCTTGATTGATTGGCAGATGACAGCATAATAGCCGTACGGAGTCACCTAGTGCAG ; wanted: its binding signal
65200 fluorescence intensity (a.u.)

# input sequence: GTGATTGATGCCGCCTGGGTTAGTTCAACTATTGCTGCATCGGAGTCACCTAGTGCAG ; wanted: its binding signal
55400 fluorescence intensity (a.u.)

# input sequence: GATAATAGATAATAGATAGATTGAAGATTAGGAAAGGGAACGGAGTCACCTAGTGCAG ; wanted: its binding signal
54800 fluorescence intensity (a.u.)

# input sequence: CCTGCATCATCAATCTGCCTACATATCGATCGATTGATCTCGGAGTCACCTAGTGCAG ; wanted: its binding signal
4630 fluorescence intensity (a.u.)

# input sequence: ATCCAATCATTTCAAAACGTATTCCTCAGCACATTAAACGCGGAGTCACCTAGTGCAG ; wanted: its binding signal
19400 fluorescence intensity (a.u.)

# input sequence: CTGCTGCTTGATTATTTGGGTTCAACTGGCAAGAACTATGCGGAGTCACCTAGTGCAG ; wanted: its binding signal
8890 fluorescence intensity (a.u.)

# input sequence: TGGGTGATTGATTAGTACTACTGCTGCATCTGCACTGCATCGGAGTCACCTAGTGCAG ; wanted: its binding signal
38400 fluorescence intensity (a.u.)

---

study target: OsWOX13 (Oryza sativa, UniProt Q5QMM3 1-267)
Sequence: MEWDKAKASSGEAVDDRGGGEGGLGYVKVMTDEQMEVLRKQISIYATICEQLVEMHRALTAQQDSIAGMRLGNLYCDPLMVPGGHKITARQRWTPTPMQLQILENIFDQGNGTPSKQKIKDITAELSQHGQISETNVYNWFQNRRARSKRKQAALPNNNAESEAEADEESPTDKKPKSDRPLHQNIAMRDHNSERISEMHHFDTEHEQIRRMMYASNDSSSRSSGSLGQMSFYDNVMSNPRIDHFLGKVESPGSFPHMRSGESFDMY
assay protocol: protein-binding microarray (RPBM); PBS, 2% BSA, 51.3 ng/ul salmon testes DNA, 50 uM zinc acetate, 200 nM TF, 25 C, 1 h; high values mean tight binding
assay setup: protein: recombinant; tags: N-terminal polyhistidine and DsRed monomer fusion (pET32a); label: CyDye5-dUTP incorporated in the synthesized complementary strand; 3' TTTTT single-stranded linker to array surface; dsDNA, one strand shown
Whole data set: some 35,000 sequences, median “fluorescence intensity (a.u.)” near 10,000, cut for the highest 2% near 52,000. Only a selection was taken, and the highest values are over-represented in it overall.
What binding signal was measured for each of the following?

# input sequence: TCCAAAATCAATCAATTAAAACCCATAGTTATTGTTGACTCGGAGTCACCTAGTGCAG ; wanted: its binding signal
53500 fluorescence intensity (a.u.)

# input sequence: TGGATAATTAAGCTCATGAGACGACAACGAACAATGAATGCGGAGTCACCTAGTGCAG ; wanted: its binding signal
8610 fluorescence intensity (a.u.)

# input sequence: CTCCTTACAAATTTTGAAGATAATTTCGTAACACTTGGGGCGGAGTCACCTAGTGCAG ; wanted: its binding signal
7610 fluorescence intensity (a.u.)

# input sequence: CATATTAATTGTTAAAGTTGTCATCATCCAAATTGTTATACGGAGTCACCTAGTGCAG ; wanted: its binding signal
11100 fluorescence intensity (a.u.)

# input sequence: TGGATGATTGGTGAGATAGGTGTTCCTTATAATTATAGGGCGGAGTCACCTAGTGCAG ; wanted: its binding signal
54800 fluorescence intensity (a.u.)
